# RUN_DESCRIPTION: qHTS RealTime-Glo MT Cell Viability Assay in HepG2 cells - 24 hour (AID 1224867); note: nearly all actives have a fitted effect of over 50% in size
# CONDITION_NOTES: RealTime-Glo luminescence; series mostly up to 76.8 µM
Records with an inconclusive call do not appear. Activity calls are given as the source filed them. Calls come from the whole dose curve; as a rule, active = well fitted cell-killing curve with a large enough effect in the repeat runs; inconclusive = weak or mixed curves; inactive = flat fitted curve, though single readings scatter.
Hello, when you answer, please use one of the following outcomes: yes (1) (active), no (0) (inactive)

Below, 2 compounds whose answers are already recorded.
C/C(=N/NC(=O)c1ccncc1)C(=O)O; no (0)
CC(C)CCCCCCOC(=O)CCCCC(=O)OCCCCCCC(C)C; no (0)

Could you kindly confirm the outcome this assay logged for `CCCCCCCCCCCC[N+](C)(C)CC(=O)[O-]` ? no (0)

Do the same for `NC(=O)N(O)[C@@H]1COc2cc(OCc3ccccc3)ccc21` please no (0)

Do the same for `Nc1ccc(S(=O)(=O)O)cc1` please no (0)

Do the same for `O=C(N[C@@H](c1ccccc1)[C@@H]1CCCCN1)c1cccc(C(F)(F)F)c1Cl` please yes (1)

Do the same for `C=CCNc1nc(NCC=C)nc(N2CCN(C(c3ccc(F)cc3)c3ccc(F)cc3)CC2)n1` please no (0)

Do the same for `C[C@@H]1C[C@H]2[C@@H]3CCC4=CC(=O)C=C[C@]4(C)[C@@]3(F)[C@@H](O)C[C@]2(C)[C@H]1C(=O)CO` please no (0)

Do the same for `Cc1cnc(C)c(C)n1` please no (0)

Do the same for OCC1CC=CCC1 (centres undefined) please no (0)

Do the same for `CC(=O)[C@H]1CC[C@H]2[C@@H]3C=CC4=CC(=O)CC[C@@]4(C)[C@@H]3CC[C@]12C` please no (0)

Do the same for `C=CC(C)=CCC=C(C)C` please no (0)

Do the same for `Fc1c(F)c(F)c(Br)c(F)c1F` please no (0)

Do the same for `O=C(CCC1CCN(Cc2ccccc2)CC1)c1ccc2c(c1)NCCCC2` please no (0)

Do the same for `CCC(=O)Oc1ccc(/C(CC)=C(\CC)c2ccc(OC(=O)CC)cc2)cc1` please no (0)

Do the same for `CC1=NN(c2ccc(C(=O)O)cc2)C(=O)C1` please no (0)

Do the same for `CC(=O)Nc1ccccc1C` please no (0)

====

# RUN_DESCRIPTION: qHTS assay to identify small molecule agonists of H2AX - cell viability counter screen (AID 1224847); note: nearly all actives have a fitted effect of over 30% in size
# CONDITION_NOTES: CHO-K1 viability, CellTiter-Glo luminescence, 3 h; series mostly up to 154 µM
Inconclusive results are not listed. The source made the active and inactive calls. Calls follow the shape of the full dose curve.
Hello, when you answer, please use one of the following outcomes: yes = active, no = inactive

CN(C)C(=O)Nc1ccc(Oc2ccc(Cl)cc2)cc1; yes

Could you kindly confirm the outcome this assay logged for `c1cnc2c(n1)CCCC2` ? no

Do the same for `CCN(Cc1cccc(S(=O)(=O)O)c1)c1ccc(C(=C2C=CC(=[N+](CC)Cc3cccc(S(=O)(=O)[O-])c3)C=C2)c2ccccc2)cc1` please no

Do the same for `CC(C)(O)c1ccccc1CC[C@@H](SCC1(CC(=O)O)CC1)c1cccc(/C=C/c2ccc3ccc(Cl)cc3n2)c1` please no

Do the same for CC(N)CN (stereo not drawn) please no

Do the same for Fc1ccccc1[C@@H](F)COC1CCC(Nc2ncnc3[nH]ncc23)CC1 (stereo partly drawn) please yes

====

# RUN_DESCRIPTION: qHTS RealTime-Glo MT Cell Viability Assay in HEK293 cells - 16 hour (AID 1224872); note: nearly all actives have a fitted effect of over 50% in size; note: potency is the fitted concentration of half-maximal effect
# CONDITION_NOTES: RealTime-Glo luminescence; series mostly up to 76.8 µM
Inconclusive results are not listed. Activity calls are given as the source filed them. Calls follow the shape of the dose curve; as a rule, active = well fitted cell-killing curve with a large enough effect in the repeat runs; inconclusive = weak or mixed curves, or effect the other way; inactive = flat fitted curve, though single readings scatter.
PARAMETER: Potency

O=C(O)Cc1ccc(-c2ccccc2)cc1; inactive
CC(C)OCC1CO1 (stereo unspecified); inactive
CCNC(=O)N1CCN(CCCC(c2ccc(F)cc2)c2ccc(F)cc2)CC1; 16.9 µM (active)
CC(=O)CC(c1ccc([N+](=O)[O-])cc1)c1c(O)c2ccccc2oc1=O (stereo unspecified); inactive
C[N+](C)(C)CCOC(N)=O; inactive

Dear colleague, I am looking for the recorded Potency of the following compound: `CC(C)(C)CC(C)(C)c1ccc(OCCO)cc1` 6.88 µM (active)

Do the same for `NC(=O)Nc1ccc(Cl)c(Cl)c1` please inactive

Do the same for `Nc1ccc(C(=O)OCCCOC(=O)c2ccc(N)cc2)cc1` please 49 µM (active)

Do the same for `CNC(=O)N(c1ccccc1)c1ccccc1` please inactive

====

# TARGET_OF_ASSAY: Estrogen receptor (Homo sapiens) (UniProt P03372)
# Sequence (P03372 whole entry, looked up): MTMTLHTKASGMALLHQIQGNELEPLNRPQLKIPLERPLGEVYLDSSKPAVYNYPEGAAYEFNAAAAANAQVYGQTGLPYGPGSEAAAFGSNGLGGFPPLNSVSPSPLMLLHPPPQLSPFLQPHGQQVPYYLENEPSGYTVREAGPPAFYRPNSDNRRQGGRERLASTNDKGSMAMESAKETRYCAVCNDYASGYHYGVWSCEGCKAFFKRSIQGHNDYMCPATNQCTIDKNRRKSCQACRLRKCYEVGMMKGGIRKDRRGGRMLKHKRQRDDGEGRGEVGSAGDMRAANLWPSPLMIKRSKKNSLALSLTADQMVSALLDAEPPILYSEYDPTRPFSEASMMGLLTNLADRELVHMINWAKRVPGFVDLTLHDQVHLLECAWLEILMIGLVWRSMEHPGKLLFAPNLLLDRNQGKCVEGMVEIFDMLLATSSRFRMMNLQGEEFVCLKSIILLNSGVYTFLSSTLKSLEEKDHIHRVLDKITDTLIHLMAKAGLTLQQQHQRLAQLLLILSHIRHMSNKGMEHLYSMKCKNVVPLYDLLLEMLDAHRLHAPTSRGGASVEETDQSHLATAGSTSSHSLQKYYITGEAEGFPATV
# RUN_DESCRIPTION: qHTS assay to identify small molecule antagonists of the estrogen receptor alpha (ER-alpha) signaling pathway using the BG1 cell line in the presence of 0.1 nM 17-beta-estradiol (AID 1259244); note: nearly all actives have a fitted effect of over 50% in size
# CONDITION_NOTES: VM7Luc4E2 (BG1) ERE-luciferase, antagonist mode, 0.1 nM E2, 22 h; series mostly up to 92.4 µM
Results filed as inconclusive are left out. Activity calls are given as the source filed them. Calls follow the shape of the dose curve; as a rule, active = well fitted inhibition curve with a large enough effect in the repeat runs; inconclusive = weak or mixed curves; inactive = no such curve, though single readings can be large or run the other way.
Hello, when you answer, please use one of the following outcomes: active, inactive

Below, 4 molecules whose answers are already recorded.
Cc1oc(C)c(C(=O)Nc2ccccc2)c1C; active
COc1ccc(CCC(=O)c2c(O)cc(O[C@@H]3O[C@H](CO)[C@@H](O)[C@H](O)[C@H]3O[C@@H]3O[C@@H](C)[C@H](O)[C@@H](O)[C@H]3O)cc2O)cc1O; inactive
CCOCCn1c(C2CCN(CCc3ccc(C(C)(C)C(=O)O)cc3)CC2)nc2ccccc21; inactive
Cc1ccnc2ccccc12; inactive

Could you kindly confirm the outcome this assay logged for `CCn1cc(C(=O)O)c(=O)c2cc(F)c(N3CCNCC3)nc21` ? inactive

Do the same for `CCCCCCCCCCCCCCC[C@H](O)[C@@H](N)CO` please inactive

====

# RUN_DESCRIPTION: qHTS assay to identify small molecule agonists of H2AX - cell viability counter screen (AID 1224847); note: nearly all actives have a fitted effect of over 30% in size; note: potency is the fitted concentration of half-maximal effect
# CONDITION_NOTES: CHO-K1 viability, CellTiter-Glo luminescence, 3 h; series mostly up to 154 µM
Results filed as inconclusive are left out. Active and inactive are the calls of the source. Calls follow the shape of the full dose curve.
PARAMETER: Potency

CN1Cc2cc(C(=O)N3CCC(C4CCNCC4)CC3)ccc2N[C@@H](CC(=O)O)C1=O; inactive
CCCCCCCCCCOS(=O)(=O)O; inactive
C[N+]1(C)CCC(=C(c2ccccc2)c2ccccc2)CC1; inactive
CCC(C)(O)CCC=C(C)C (stereo not given); inactive

Dear colleague, I am looking for the recorded Potency of the following compound: `CCCCCCCCCCCCCCC[C@H](O)[C@@H](N)CO` 49.2 µM (active)

====

# TARGET_OF_ASSAY: Cytochrome P450 2C9 (Homo sapiens)
# RUN_DESCRIPTION: Cytochrome P450 Family 2 Subfamily C Member 9 (CYP2C9) small molecule antagonists: luciferase reporter qHTS assay (AID 1671198); note: nearly all actives have a fitted effect of over 50% in size
# CONDITION_NOTES: P450-Glo CYP2C9 enzyme assay, luciferin luminescence; series mostly up to 115 µM
Results filed as inconclusive are left out. The source made the active and inactive calls. The call rests on the fitted dose curve; in most records, active means well fitted inhibition curve with a large enough effect in the repeat runs; inconclusive means weak or mixed curves; inactive means no such curve, though single readings can be large or run the other way.
Hello, when you answer, please use one of the following outcomes: yes (1) for active, no (0) for inactive

Below, 10 compounds whose answers are already recorded.
Nc1ccc(S(=O)(=O)O)cc1; no (0)
O=C(OCCOCCO)c1ccccc1Nc1cccc(C(F)(F)F)c1; yes (1)
CCCCCCOC(=O)CCCCCCCC(=O)OCCCCCC; no (0)
CCN(CC)CCNC(=O)c1ccc(NC(C)=O)cc1; no (0)
C=CC(=C)CCCC(C)(C)OC(C)=O; no (0)
CCC(C)(C)C1CCC(O)CC1 (configuration not stated); no (0)
Nc1nc(Cl)nc2c1ncn2[C@@H]1O[C@H](CO)[C@@H](O)[C@@H]1F; no (0)
COc1ccc(C(=O)c2cccc(O)c2)c(OC)c1; no (0)
COc1cc2c(N3CCN(C(=O)Nc4ccc(OC(C)C)cc4)CC3)ncnc2cc1OCCCN1CCCCC1; no (0)
CC(C)=CC=O; no (0)

Could you kindly confirm the outcome this assay logged for `CCOC(=O)[C@@H](C)Oc1ccc(Oc2nc3ccc(Cl)cc3o2)cc1` ? yes (1)

Do the same for `CCCCCC=CCC=CCCCCCCCC(=O)OCC` please yes (1)

Do the same for `CCCCCCCCCCCC(=O)[O][Sn]([CH2]CCC)([CH2]CCC)[O]C(=O)CCCCCCCCCCC` please no (0)

Do the same for `NC(=O)Cn1c(=O)cc(CCN2CCN(c3nccc4sccc34)CC2)c2ccc(F)cc21` please yes (1)

Do the same for `CC1(C)C(=O)N(Br)C(=O)N1Cl` please yes (1)

Do the same for `O=Cc1c(Cl)cccc1Cl` please no (0)

Do the same for CO/N=C1\CN(c2nc3c(cc2F)c(=O)c(C(=O)O)cn3C2CC2)CC1CN (configuration not stated) please no (0)

Do the same for `N#C[C@@H]1C[C@@H]2C[C@@H]2N1C(=O)[C@@H](N)C12CC3CC(CC(O)(C3)C1)C2` please no (0)

Do the same for `O=C(N[C@@H](c1ccccc1)[C@@H]1CCCCN1)c1cccc(C(F)(F)F)c1Cl` please yes (1)
